List of pIC50 values.
# Test Target: Full length Human HDAC6 (Homo sapiens)
# Sequence (Q9UBN7 1-1215): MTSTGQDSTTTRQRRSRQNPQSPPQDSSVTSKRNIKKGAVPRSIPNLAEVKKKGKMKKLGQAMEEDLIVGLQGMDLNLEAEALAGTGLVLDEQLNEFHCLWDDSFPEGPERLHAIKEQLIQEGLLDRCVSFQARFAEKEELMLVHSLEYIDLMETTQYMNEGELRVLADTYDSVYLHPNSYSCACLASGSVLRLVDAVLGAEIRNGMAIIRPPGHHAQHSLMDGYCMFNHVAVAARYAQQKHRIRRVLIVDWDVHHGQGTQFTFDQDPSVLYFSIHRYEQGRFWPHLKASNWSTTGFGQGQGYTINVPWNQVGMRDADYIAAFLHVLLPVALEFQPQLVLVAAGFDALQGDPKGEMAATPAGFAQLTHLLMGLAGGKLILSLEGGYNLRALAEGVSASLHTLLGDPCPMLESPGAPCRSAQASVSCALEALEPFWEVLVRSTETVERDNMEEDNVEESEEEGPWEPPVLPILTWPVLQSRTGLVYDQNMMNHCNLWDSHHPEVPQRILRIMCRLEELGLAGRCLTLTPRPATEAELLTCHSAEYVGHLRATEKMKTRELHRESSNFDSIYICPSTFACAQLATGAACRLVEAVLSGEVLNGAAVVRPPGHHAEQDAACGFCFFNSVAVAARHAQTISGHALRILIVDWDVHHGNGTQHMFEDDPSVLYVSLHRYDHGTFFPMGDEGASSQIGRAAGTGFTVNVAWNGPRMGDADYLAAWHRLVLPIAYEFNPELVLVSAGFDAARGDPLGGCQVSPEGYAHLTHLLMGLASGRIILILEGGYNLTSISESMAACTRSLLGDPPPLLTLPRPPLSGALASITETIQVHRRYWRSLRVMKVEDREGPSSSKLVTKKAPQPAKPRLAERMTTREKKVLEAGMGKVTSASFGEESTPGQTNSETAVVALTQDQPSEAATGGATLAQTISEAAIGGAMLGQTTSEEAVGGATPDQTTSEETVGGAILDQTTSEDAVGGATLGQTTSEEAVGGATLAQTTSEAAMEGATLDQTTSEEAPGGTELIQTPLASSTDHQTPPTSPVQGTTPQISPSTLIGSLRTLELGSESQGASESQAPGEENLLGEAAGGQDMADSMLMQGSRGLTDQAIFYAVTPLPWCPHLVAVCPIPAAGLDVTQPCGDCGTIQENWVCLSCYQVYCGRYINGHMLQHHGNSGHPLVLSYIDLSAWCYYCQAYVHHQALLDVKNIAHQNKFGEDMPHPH
pIC50: −log10 of the molar value.

Compound	pIC50
CC[C@@H]1Cc2c(F)cc(C(=O)NO)cc2CN1C1CC2(CCN(C)CC2)C1 (single isomer, unassigned)	7.00 to 9.00
CC[C@H]1Cc2c(F)cc(C(=O)NO)cc2CN1CC1C2CC1CN(C)C2 (single isomer, unassigned)	7.00 to 9.00
CN1CCC[C@@]2(CC[C@@H]2N2CCc3cc(C(=O)NO)cc(F)c3C2)C1 (single isomer, unassigned)	7.00 to 9.00
O=C(NO)c1cc(F)c2c(c1)CN1CCCC[C@H]1C2	6.00 to 7.00
O=C(NO)c1cc(F)c2c(c1)CCN([C@@H]1CC[C@]13CCOC3)C2 (single isomer, unassigned)	7.00 to 9.00

Provide pIC50 value for the following compound: `CN1C[C@]2(CN3CCc4cc(C(=O)NO)cc(F)c4C3)C[C@H]1CO2`
7.00 to 9.00

Name the recorded pIC50 of the item `O=C(NO)c1cc(F)c2c(c1)C[C@@H]1CCCCN1C2` in your answer.
7.00 to 9.00

Let me know recorded pIC50 for CC[C@H]1Cc2c(F)cc(C(=O)NO)cc2CN1CC12CC(NC(C)=O)(C1)C2 (single isomer, unassigned) , thanks.
7.00 to 9.00
